Numbers sourced from patent US10125167B2.

// Antibiotic MIC +¼ MIC (ASU014) lookup, one value per entry
Test system: USA100
Experiment: Synergy of ASU014 with antibiotics (MIC/FIC)
Type: cell-based, S. aureus
Conditions: USA100, with ¼ MIC ASU014
Please state the figure in µg/mL; there is no need to write the unit.

[
  {
    "compound": "CCOc1ccc2ccccc2c1C(=O)N[C@@H]1C(=O)N2[C@@H]1SC(C)(C)[C@@H]2C(=O)O [Nafcillin, nafcillin]",
    "tested_on": "USA100",
    "unit_of_measure": "µg/mL",
    "Antibiotic MIC +¼ MIC (ASU014)": 2
  },
  {
    "compound": "CC1(C)S[C@@H]2[C@H](NC(=O)[C@H](N)c3ccc(O)cc3)C(=O)N2[C@H]1C(=O)O [Amoxicillin, amoxicillin]",
    "tested_on": "USA100",
    "unit_of_measure": "µg/mL",
    "Antibiotic MIC +¼ MIC (ASU014)": 32
  }
]

Please turn your attention to the following entry.
Asked: Please report the recorded Antibiotic MIC +¼ MIC (ASU014) for Cc1onc(-c2ccccc2)c1C(=O)N[C@@H]1C(=O)N2[C@@H]1SC(C)(C)[C@@H]2C(=O)O [Oxa, oxacillin] .
Given back: 8
